System: Human alphaherpesvirus 3
MEASUREMENT DESCRIPTION: The compound was tested for its effective concentration required to reduce virus plaque formation by using Varicella-Zoster virus YS strain
Format: functional, organism-based
Give measured EC50 for each item. Keep answers brief.
Numbers only, in µM.

[[record]]
smiles_data = "O=c1[nH]c(=O)n([C@H]2C[C@H](O)[C@@H](CO)O2)cc1C#CCCCCCCCCCBr"
reading = 0.8

[[record]]
smiles_data = "O=c1[nH]c(=O)n([C@H]2C[C@H](O)[C@@H](CO)O2)cc1C#CCCCCCCCCCCl"
reading = 2.8

[[record]]
smiles_data = "O=c1[nH]c(=O)n([C@H]2C[C@H](O)[C@@H](CO)O2)cc1C#CCCCCCCCCCI"
reading = 6

[[record]]
smiles_data = "O=c1nc2oc(CCCCCCCCCBr)cc2cn1[C@H]1C[C@H](O)[C@@H](CO)O1"
reading = 0.031

[[record]]
smiles_data = "O=c1nc2oc(CCCCCCCCCCl)cc2cn1[C@H]1C[C@H](O)[C@@H](CO)O1"
reading = 0.012


Can you give me EC50 for all of these, one by one?
1. O=c1nc2oc(CCCCCCCCCI)cc2cn1[C@H]1C[C@H](O)[C@@H](CO)O1
2. O=c1[nH]c(=O)n([C@H]2C[C@H](O)[C@@H](CO)O2)cc1C#CCCCCCCCCCF
3. O=c1nc2oc(CCCCCCCCCF)cc2cn1[C@H]1C[C@H](O)[C@@H](CO)O1

A)
1. 0.034
2. 22
3. 0.014
